# Study target: human amylin receptor (hAMYR3) (Homo sapiens, UniProt O60896+P30988)
# Construct: host or cells: BHK cells (Hollex-1 line expressing hCTR(a) and CRE-Luc), further transfected with human RAMP3
# Sequence (P30988 25-474): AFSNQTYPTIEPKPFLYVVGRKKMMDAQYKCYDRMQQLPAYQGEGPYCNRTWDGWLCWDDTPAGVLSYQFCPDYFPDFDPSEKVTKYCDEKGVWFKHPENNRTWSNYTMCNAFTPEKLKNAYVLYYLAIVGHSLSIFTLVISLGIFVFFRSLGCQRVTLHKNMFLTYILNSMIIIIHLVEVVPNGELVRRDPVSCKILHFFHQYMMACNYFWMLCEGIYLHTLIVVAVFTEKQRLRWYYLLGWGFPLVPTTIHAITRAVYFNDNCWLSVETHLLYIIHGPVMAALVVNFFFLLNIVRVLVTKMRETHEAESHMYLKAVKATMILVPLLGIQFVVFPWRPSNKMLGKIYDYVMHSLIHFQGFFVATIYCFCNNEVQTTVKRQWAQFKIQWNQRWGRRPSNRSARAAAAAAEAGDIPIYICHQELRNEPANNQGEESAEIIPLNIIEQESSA
# Sequence (O60896 24-148): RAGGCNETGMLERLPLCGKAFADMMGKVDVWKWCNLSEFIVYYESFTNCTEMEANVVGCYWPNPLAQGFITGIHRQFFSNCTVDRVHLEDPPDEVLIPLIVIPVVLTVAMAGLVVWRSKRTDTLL
# Procedure details: Amylin receptor assay, method A (CRE-luciferase reporter, BHK cells)
# Type: cell-based
# Condition details: method A, absence of HSA; read-out: hAMYR3 Potency, no HSA, EC50
Numbered stars: 1 amine (or outer) side, 2 acyl side, 3 side chain; on linkers, the order of the positions; unused ones are H or OH. Square brackets hold non-standard residues; d marks the D form. Side chains are listed from the residue outwards. * marks the point of attachment. C18 diacid = O=C(O)CCCCCCCCCCCCCCCCC(=O)*; γGlu = O=C(O)[C@H](CCC(=O)[*:2])N[*:1]; AEEA = NCCOCCOCC(=O)O; Aib = CC(C)(N)C(=O)O
Threshold 4 pM: EC50 strictly smaller gives Condition met, otherwise Condition not met.

State whether 4 pM exceeds EC50 recorded for Y[Aib]EGTFTSDYSILLEEQAAREFIEWLLAGGPSRGEASELSTAALGRLSAELHK([AEEA-AEEA-γGlu-C18 diacid])LATLPRTETGSGSP-NH2 [Compound 67] .
Condition met

Field: below-cutoff. Rule: recorded EC50 strictly less than 4 pM. Subject: H[Aib]HGTFTSDYSILLEEQAAREFIEWLLAGGPSRGAPPPSGGGEASHLSTQTQGRLSAELHK([AEEA-AEEA-γGlu-C18 diacid])LATLPRTETGSGSP-NH2 [Compound 71]
Condition not met

Is it true that EC50 reported for Y[Aib]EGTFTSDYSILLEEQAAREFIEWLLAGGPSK([AEEA-AEEA-γGlu-C18 diacid])GAEASELSTAALGRLSAELHELATLPRTETGSGSP-NH2 [Compound 32] is less than 4 pM?
Condition not met

Now, please, on to the next substance.
In plain terms, does Y[Aib]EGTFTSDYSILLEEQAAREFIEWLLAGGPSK([AEEA-AEEA-γGlu-C18 diacid])GALAQTLGTNEASELSTAALGRLSAELHELATLPRTETGSGSP-NH2 [Compound 23] come in under 4 pM for EC50?
Condition not met

---

# Study target: human amylin receptor (hAMYR3) (Homo sapiens, UniProt O60896+P30988)
# Construct: host or cells: BHK cells (Hollex-1 line expressing hCTR(a) and CRE-Luc), further transfected with human RAMP3
# Procedure details: Amylin receptor assay, method A (CRE-luciferase reporter, BHK cells)
# Type: cell-based
# Condition details: hAMYR3 Potency, 1% HSA, EC50, method A, in the presence of 1% HSA
pEC50: −log10 of the molar value. Numbered stars: 1 amine (or outer) side, 2 acyl side, 3 side chain; on linkers, the order of the positions; unused ones are H or OH. Square brackets hold non-standard residues; d marks the D form. Side chains are listed from the residue outwards. * marks the point of attachment. C20 diacid = O=C(O)CCCCCCCCCCCCCCCCCCC(=O)*; C18 diacid = O=C(O)CCCCCCCCCCCCCCCCC(=O)*; γGlu = O=C(O)[C@H](CCC(=O)[*:2])N[*:1]; AEEA = NCCOCCOCC(=O)O; Aib = CC(C)(N)C(=O)O
Assign Satisfied whenever pEC50 does not fall below 10; assign Not satisfied whenever it does.

Worked examples, 3 substances total:
Can H[Aib]HGTFTSDYSILLEEQAAREFIEWLLAGGPSSGEASHLSTAQTQRLSAELHRLK([AEEA-AEEA-γGlu-C18 diacid])TLPRTETGSGSP-NH2 [Compound 83] be said to have pEC50 at or above 10?
Satisfied

Answer whether pEC50 of Y[Aib]EGTFTSDYSILLEEQAAREFIEWLLAGGPSSGAGQAPGQAPGASHLSTAQTQRLSAELHRLATLPK([AEEA-AEEA-γGlu-C20 diacid])TETGSGSP-NH2 [Compound 76] is greater than or equal to 10.
Not satisfied

Kindly determine if pEC50 recorded for Y[Aib]EGTFTSDYSILLEEQAAREFIEWLLAGGPSRGAPPPSGGGEASHLSTQTQGRLSAELHK([AEEA-AEEA-γGlu-C18 diacid])LATLPRTETGSGSP-NH2 [Compound 72] is above or exactly 10.
Not satisfied

Pending substance:
Hi, just wondering whether Y[Aib]EGTFTSDYSILLEEQAAREFIEWLLAGGPSSGAPPPSGGGEASHLSTAQTQRLSAK([AEEA-AEEA-γGlu-C18 diacid])LHRLATLPRTETGSGSP-NH2 [Compound 109] shows pEC50 of 10 or higher.
Satisfied

Values from patent US20260174875A1
